- Tested on: human iPSC neurons, astrocytes and microglia treated with 5 μM sAβ42s
- Protocol summary: Focused small molecule screen, triple culture (neuron, astrocyte, microglia), rescue from sAβ42s toxicity
- Format: cell-based
- Details: 3.13 μM compound
Where a SMILES comes first, the peptide text is derived from it. [ ]: non-standard residue; d: D form. Nle = CCCC[C@H](N)C(=O)O
Could you mark each record satisfied if its % B3T rescue falls strictly under 70%, and not satisfied if it equals or exceeds it?

Answered examples (4):
Compound | Qualitative label
CC(C)[C@H](CO)Nc1nc(Nc2cccc(Cl)c2)c2ncn(C(C)C)c2n1 | satisfied
Cc1c(C)c(NCC(=O)N(C)C2CCN(Cc3ccc(C(N)=O)cc3)CC2)c(C)c(C)c1N | satisfied
CCCC[C@@H](C=O)NC(=O)[C@H](CC(C)C)NC(=O)[C@H](CC(C)C)NC(C)=O [Ac-Leu-Leu-Nle-CHO] (Ac-Leu-Leu-[Nle]-aldehyde) | satisfied
CCN(CC)CCNC(=O)c1c(C)[nH]c(/C=C2\C(=O)Nc3ccc(F)cc32)c1C | not satisfied

Consider the compound O=C(Nc1cccc(Br)c1)c1cccc(S(=O)(=O)N2CCCCCC2)c1 . Is its % B3T rescue strictly less than 70%?
not satisfied

Consider the compound OC(CNc1ccccc1)Cn1c2ccc(Br)cc2c2cc(Br)ccc21 (centres unmarked) . Is its % B3T rescue strictly less than 70%?
satisfied

Consider the compound C=C(c1ccc(C(=O)O)c(F)c1)c1cc2c(cc1C)C(C)(C)CCC2(C)C . Is its % B3T rescue strictly less than 70%?
satisfied

Consider the compound C=C[C@@]1(C)CC(=O)[C@]2(O)[C@@]3(C)[C@@H](O)CCC(C)(C)[C@@H]3[C@H](OC(=O)CCN(C)C)[C@H](OC(C)=O)[C@@]2(C)O1.Cl . Is its % B3T rescue strictly less than 70%?
satisfied

Consider the compound CN(C)S(=O)(=O)c1ccc2c(c1)/C(=C/c1cc3c([nH]1)CCCC3)C(=O)N2 . Is its % B3T rescue strictly less than 70%?
not satisfied

###

Please respond with reported percent rescue from sAβ42s toxicity at 50 µM for every item in the list.
- System: human iPSC neurons, astrocytes and microglia treated with 5 μM sAβ42s
- Protocol summary: Focused small molecule screen, triple culture (neuron, astrocyte, microglia), rescue from sAβ42s toxicity
- Assay type: cell-based
- Details: Homo sapiens, iPSC, 50.00 μM compound, read-out: % B3T rescue
Where a name gives a salt, the structure may show the parent alone. Where a SMILES comes first, the peptide text is derived from it. The star is where a group is joined. Cbz = O=C(OCc1ccccc1)*
Numbers only, in %.

Examples from the recorded data:
Compound | Quantitative result
O=c1cc(-c2ccc(O)c(O)c2)oc2cc(O)cc(O)c12 | 91
Oc1ccc(C=Cc2cc(O)cc(O)c2)cc1 | 78
CC(C)C[C@@H](C=O)NC(=O)[C@H](CC(C)C)NC(=O)[C@H](CC(C)C)NC(=O)OCc1ccccc1 [MG-132] (Cbz-Leu-Leu-Leu-aldehyde) | 46

Give percent rescue from sAβ42s toxicity at 50 µM for all compounds that follow.
1. Cn1cnc2c(NCc3ccccc3)nc(NCCO)nc21
2. CCCC[C@@H](C=O)NC(=O)[C@H](CC(C)C)NC(=O)OCc1ccccc1
3. Oc1cc(O)c2c(c1)O[C@H](c1ccc(O)c(O)c1)[C@H](O)C2 [Epicatechin]
4. CC(=O)c1c(C)c2cnc(Nc3ccc(N4CCNCC4)cn3)nc2n(C2CCCC2)c1=O [PD 0332991 isethionate]
5. O=C(NOC[C@H](O)CO)c1ccc(F)c(F)c1Nc1ccc(I)cc1F

1. 69
2. 66
3. 30
4. 90
5. 59

Give percent rescue from sAβ42s toxicity at 50 µM for all compounds that follow.
1. Cc1c[nH]c(-c2cnc(NCCNc3ccc(C#N)cn3)nc2-c2ccc(Cl)cc2Cl)n1 [CHIR 99021 trihydrochloride]
2. N#Cc1ccnc(Nc2cc(C3CCN(C4COC4)CC3)cc(N3CCC(F)(F)C3)n2)c1
3. COc1cc([C@@H]2c3cc4c(cc3[C@@H](O[C@@H]3O[C@@H]5CO[C@@H](c6cccs6)O[C@H]5[C@H](O)[C@H]3O)[C@H]3COC(=O)[C@H]23)OCO4)cc(OC)c1O [Teniposide]
4. C/C=C1\C(=O)C[C@H]2[C@@H]3CCC4=CC(=O)CC[C@]4(C)[C@H]3CC[C@]12C

1: 66; 2: 65; 3: 52; 4: 36

###

- System: human iPSC neurons, astrocytes and microglia treated with 5 μM sAβ42s
- Protocol summary: Focused small molecule screen, triple culture (neuron, astrocyte, microglia), rescue from sAβ42s toxicity
- Assay type: cell-based
- Details: 50.00 μM compound
Measure name: % Synapse rescue (%)
Numbers only, in %.

Examples from the recorded data:
Structure notation | Value units | Quantitative result
O=C1Nc2ccccc2/C1=C1/Nc2ccccc2/C1=N\O | % | 34
CCOC(=O)c1ccc(N(C)c2csc(-c3ccccc3)n2)cc1 | % | 28
COc1ccc(S(=O)(=O)NCCCC(=O)Nc2ccc(Sc3ccc(N)cc3)cc2)cc1 | % | 55
O=C(Nc1cccc(Br)c1)c1cccc(S(=O)(=O)N2CCCCCC2)c1 | % | 17

Give % Synapse rescue for all compounds that follow.
1. CC1=NN(c2ccc(C(=O)O)cc2)C(=O)/C1=C\c1ccc(-c2cc(C)c(C)cc2[N+](=O)[O-])o1
2. Cc1c(C)c(NCC(=O)N(C)C2CCN(Cc3ccc(C(N)=O)cc3)CC2)c(C)c(C)c1N
3. C=C[C@@]1(C)CC(=O)[C@]2(O)[C@@]3(C)[C@@H](O)CCC(C)(C)[C@@H]3[C@H](OC(=O)CCN(C)C)[C@H](OC(C)=O)[C@@]2(C)O1.Cl

1. 39
2. 11
3. 38

// recorded % Synapse rescue for CN(C)S(=O)(=O)c1ccc2c(c1)/C(=C/c1cc3c([nH]1)CCCC3)C(=O)N2 : 36

###

- System: human iPSC neurons, astrocytes and microglia treated with 5 μM sAβ42s
- Protocol summary: Focused small molecule screen, triple culture (neuron, astrocyte, microglia), rescue from sAβ42s toxicity
- Type: cell-based
- Details: 3.13 μM compound
We use 30% as the dividing line for % B3T rescue: on or above the line is Y, below is N.

Compound | Qualitative label
Cc1[nH]c(/C=C2\C(=O)Nc3ccccc32)c(C)c1CCC(=O)O | Y
O=C1Nc2ccccc2/C1=C1/Nc2ccccc2/C1=N\O | Y
N#CC(c1ccnc(NCCc2cccnc2)n1)c1nc2ccccc2s1 (centres unmarked) | N
CCCCCCCCCCCCCCCCCC(=O)NCCc1ccc(O)c(O)c1 | Y

# evaluate next
Hi, just wondering whether N#C/C(=C\c1ccc(O)c(O)c1)C(=O)OCCc1cccs1 shows % B3T rescue of 30% or higher.
Y

###

- Test system: human iPSC neurons and astrocytes treated with 5 μM sAβ42s
- Protocol summary: Focused small molecule screen, double culture (neuron, astrocyte), rescue from sAβ42s toxicity, high content imaging
- Type: cell-based
- Details: 6.25 μM compound; double culture; 5 μM sAβ42s
Please respond with reported % B3T rescue for every item in the list.
Answers are plain numbers, in %.

Examples from the recorded data:
Compound | % B3T rescue (%)
O=C1Nc2ccc3ncsc3c2/C1=C/Nc1ccc(S(=O)(=O)Nc2ccccn2)cc1 | 32
N#CC(c1ccnc(NCCc2cccnc2)n1)c1nc2ccccc2s1 (stereo not shown) | 14
O=C1Nc2ccc(I)cc2/C1=C/c1cc(Br)c(O)c(Br)c1 | 16

Now look at this entry.
Summary line: C=C[C@@]1(C)CC(=O)[C@]2(O)[C@@]3(C)[C@@H](O)CCC(C)(C)[C@@H]3[C@H](OC(=O)CCN(C)C)[C@H](OC(C)=O)[C@@]2(C)O1.Cl , human iPSC neurons and astrocytes treated with 5 μM sAβ42s, reported % B3T rescue = 38

###

- Tested on: human iPSC neurons and astrocytes treated with 5 μM sAβ42s
- Protocol summary: Focused small molecule screen, double culture (neuron, astrocyte), rescue from sAβ42s toxicity, high content imaging
- Format: cell-based
- Details: Homo sapiens, iPSC; 6.25 μM compound; double culture; 5 μM sAβ42s; read-out: % MAP2 rescue
Where a SMILES comes first, the peptide text is derived from it. The star is where a group is joined. Cbz = O=C(OCc1ccccc1)*
Measure name: percent rescue from sAβ42s toxicity at 6.25 µM (%)
Answers are plain numbers, in %.

Give percent rescue from sAβ42s toxicity at 6.25 µM for all compounds that follow.
1. CCCC[C@@H](C=O)NC(=O)[C@H](CC(C)C)NC(=O)OCc1ccccc1 [Calpeptin]
2. CC(C)C[C@@H](C=O)NC(=O)[C@H](CC(C)C)NC(=O)[C@H](CC(C)C)NC(=O)OCc1ccccc1 [MG-132] (Cbz-Leu-Leu-Leu-aldehyde)

[22, 18]

Give percent rescue from sAβ42s toxicity at 6.25 µM for all compounds that follow.
1. CN1CCN(CCOc2cc(OC3CCOCC3)c3c(Nc4c(Cl)ccc5c4OCO5)ncnc3c2)CC1 [Saracatinib (AZD0530), Saracatinib]
2. N#Cc1ccnc(Nc2cc(C3CCN(C4COC4)CC3)cc(N3CCC(F)(F)C3)n2)c1 [GNE-3511]

1. 61
2. 32
